Cited source: the supplement of paper PMC10201428

- Tested on: VchCAST RNA-guided transposition machinery (E. coli BL21(DE3) host, lacZ target)
- assay_text: relative integration efficiency (T-LR orientation) vs wild-type transposon end (log2 (normalized fold change)); transposon end mutated: right end (5 bp flank + 75 bp right end); higher = more efficient transposition
Each record gets a class by relative integration efficiency (log2): LOW: < -1; MEDIUM: ≥ -1 and < 0.04; HIGH: ≥ 0.04

Bin? CAAAATGTAAAAAAAACCATACGTTGATTTTACGAAACCATACGCTGAAATAAAAACAACCATACCTTGAAATTGCTTATAAAGTGTACAACACTTGAGAAAGTTTACTACAGGTATGCACCGACAC
LOW

Assign a category based on measured relative integration efficiency (log2) for ACATTTGTTGATACAACCATAAAATGATAATTACACCCATAAATTGATAAGGCGCACACCCATAAATTGATATTGCCTCTGATCATAGTCAGACCAACATTGCTACGACCCGTATTCGCACCGACAC and give only the class name.
MEDIUM

Which class is correct for the following sequence? ACATTTGTTGATACAACCATAAAAGGATAATTACACCCATCAATTGATAATTATCACACCCCATTTAACTATAACGCTCTGATCATAGTCAGACCAACATTGCTACGACCCGTATTCGCACCGACAC
HIGH

Determine which band this sequence sits in: ACATTTGTTGATACAACCATATTTAGATAATTACACCCATATTAAGATAATTATCACACCCATATTAAGATATTGCCTCTGATCATAGTCAGACCAACATTGCTACGACCCGTATTCGCACCGACAC
LOW

Please report the category associated with ACATTTGTTGATACAACCATAAAATGATAATTACTCTGATCATAGTCAGACCAACATTCACCCATAAATTGATAATTATCACACCCATAAATTGATATTGCGCTACGACCCGTATTCGCACCGACAC , nothing else.
LOW

GET /class?item= ACATTTGTTGATACAACCATAAAATGATAATTAATAATTACACCCATAAATTGATAATTATCACACCCATAAATTGATATTGCCTCTGATCATAGTCAGACCAACATTGCTACGACCCGTATTCGCA
MEDIUM

Consider ACATTTCTCGATACAACCATAAAATGATAATTACACCCATAAATTCATCATTATCACACCCAATTTAACTATAACGCTCTGATCATAGTCAGACCAACATTGCTACGACCCGTATTCGCACCGACAC . To which relative integration efficiency (log2) class does it belong?
HIGH

Using the reported relative integration efficiency (log2), which band applies to ACATTTGTTGATACAACCATAAAATGATAATTAGTGGGTATTTAACTATTAATTCACACCCATAAATTGATATTGCCTCTGATCATAGTCAGACCAACATTGCTACGACCCGTATTCGCACCGACAC ?
LOW

Each sequence maps to one class by relative integration efficiency (log2). Which class for ACATTTGTTGATACAACCATAAAATGATAAATACACCCATAAATTGATAAATATCACACCCATAAATTGATATAGCCTCTGATCATAGTCAGACCAACATTGCTACGACCCGTATTCGCACCGACAC ?
MEDIUM

Categorize the following entry: ACATTTGTTGATACAACCATAAAATTCGCCGGCACAAACGCCCGGTCGCCGGCGACACAAACGCCCGGTCGCGGTAAGAGGATCATAGTCAGACCAACATTGCTACGACCCGTATTCGCACCGACAC
MEDIUM
